target: HDAC1 enzyme (Homo sapiens, UniProt Q13547); construct: transducing full length HDAC1 and HDAC6 genes into Sf-9 insect cells; GST; purchased SignalChem; host or cells: Sf-9 insect cells; assay: HDAC1/6 Enzyme Inhibitory Assay (HDAC-Glo I/II Assay kit), HDAC1; assay type: biochemical; settings: 1 μM test compound; wells without enzyme = 100% inhibition; read-out: HDAC1 inhibitory rate (%) (1 μM)
Sequence (Q13547 whole entry): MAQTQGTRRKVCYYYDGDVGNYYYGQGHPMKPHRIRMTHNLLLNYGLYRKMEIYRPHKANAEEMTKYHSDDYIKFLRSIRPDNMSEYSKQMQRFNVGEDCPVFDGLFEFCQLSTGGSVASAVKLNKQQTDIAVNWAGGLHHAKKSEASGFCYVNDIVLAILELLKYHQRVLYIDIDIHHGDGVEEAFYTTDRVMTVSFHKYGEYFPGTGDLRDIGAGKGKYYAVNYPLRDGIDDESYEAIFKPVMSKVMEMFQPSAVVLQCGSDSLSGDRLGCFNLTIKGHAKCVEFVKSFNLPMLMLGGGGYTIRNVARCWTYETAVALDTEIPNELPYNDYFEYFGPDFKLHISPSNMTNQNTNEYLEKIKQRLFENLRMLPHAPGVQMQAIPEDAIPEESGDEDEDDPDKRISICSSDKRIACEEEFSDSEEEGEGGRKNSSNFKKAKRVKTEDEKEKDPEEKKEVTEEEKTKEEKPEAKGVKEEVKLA
outcome.measure: inhibition at 1 µM (%)
Record the value in %, omitting the unit from your answer.

These solved cases illustrate the format of a correct answer.
>>> measured_number("O=C1c2cc(-c3noc(C(F)(F)F)n3)ccc2CN1[C@@H]1CCCC[C@H]1NS(=O)(=O)C1CC1")
37
>>> measured_number("O=C(N[C@@H]1CCCC[C@H]1N1Cc2ccc(-c3noc(C(F)(F)F)n3)cc2C1=O)N1CCS(=O)(=O)CC1")
5
>>> measured_number("O=C(N[C@@H]1CCCC[C@H]1N1Cc2ccc(-c3noc(C(F)(F)F)n3)cc2C1=O)N1CC2(COC2)C1")
1
>>> measured_number("O=C(N[C@@H]1CCCC[C@H]1N1Cc2ccc(-c3noc(C(F)(F)F)n3)cc2C1=O)c1ccncn1")
16
>>> measured_number("CCC1(C(=O)N[C@@H]2CCCC[C@H]2N2Cc3ccc(-c4noc(C(F)(F)F)n4)cc3C2=O)COC1")
2

Let me know recorded inhibition at 1 µM for Cc1ccc([C@@H]2CNCC[C@H]2N2Cc3ccc(-c4noc(C(F)(F)F)n4)cc3C2=O)cc1Cl (relative stereo) , thanks.
93

Let me know recorded inhibition at 1 µM for `CC(C)N(C(=O)N[C@@H]1CCCC[C@H]1N1Cc2ccc(-c3noc(C(F)(F)F)n3)cc2C1=O)C(C)C` , thanks.
12

----------
biological target: HDAC6 enzyme (Homo sapiens, UniProt Q9UBN7); construct: transducing full length HDAC1 and HDAC6 genes into Sf-9 insect cells; GST; purchased SignalChem; host or cells: Sf-9 insect cells; assay: HDAC1/6 Enzyme Inhibitory Assay (HDAC-Glo I/II Assay kit), HDAC6; type: biochemical; conditions: 1 μM test compound; wells without enzyme = 100% inhibition; read-out: HDAC6 inhibitory rate (%) (1 μM)
Sequence (Q9UBN7 whole entry): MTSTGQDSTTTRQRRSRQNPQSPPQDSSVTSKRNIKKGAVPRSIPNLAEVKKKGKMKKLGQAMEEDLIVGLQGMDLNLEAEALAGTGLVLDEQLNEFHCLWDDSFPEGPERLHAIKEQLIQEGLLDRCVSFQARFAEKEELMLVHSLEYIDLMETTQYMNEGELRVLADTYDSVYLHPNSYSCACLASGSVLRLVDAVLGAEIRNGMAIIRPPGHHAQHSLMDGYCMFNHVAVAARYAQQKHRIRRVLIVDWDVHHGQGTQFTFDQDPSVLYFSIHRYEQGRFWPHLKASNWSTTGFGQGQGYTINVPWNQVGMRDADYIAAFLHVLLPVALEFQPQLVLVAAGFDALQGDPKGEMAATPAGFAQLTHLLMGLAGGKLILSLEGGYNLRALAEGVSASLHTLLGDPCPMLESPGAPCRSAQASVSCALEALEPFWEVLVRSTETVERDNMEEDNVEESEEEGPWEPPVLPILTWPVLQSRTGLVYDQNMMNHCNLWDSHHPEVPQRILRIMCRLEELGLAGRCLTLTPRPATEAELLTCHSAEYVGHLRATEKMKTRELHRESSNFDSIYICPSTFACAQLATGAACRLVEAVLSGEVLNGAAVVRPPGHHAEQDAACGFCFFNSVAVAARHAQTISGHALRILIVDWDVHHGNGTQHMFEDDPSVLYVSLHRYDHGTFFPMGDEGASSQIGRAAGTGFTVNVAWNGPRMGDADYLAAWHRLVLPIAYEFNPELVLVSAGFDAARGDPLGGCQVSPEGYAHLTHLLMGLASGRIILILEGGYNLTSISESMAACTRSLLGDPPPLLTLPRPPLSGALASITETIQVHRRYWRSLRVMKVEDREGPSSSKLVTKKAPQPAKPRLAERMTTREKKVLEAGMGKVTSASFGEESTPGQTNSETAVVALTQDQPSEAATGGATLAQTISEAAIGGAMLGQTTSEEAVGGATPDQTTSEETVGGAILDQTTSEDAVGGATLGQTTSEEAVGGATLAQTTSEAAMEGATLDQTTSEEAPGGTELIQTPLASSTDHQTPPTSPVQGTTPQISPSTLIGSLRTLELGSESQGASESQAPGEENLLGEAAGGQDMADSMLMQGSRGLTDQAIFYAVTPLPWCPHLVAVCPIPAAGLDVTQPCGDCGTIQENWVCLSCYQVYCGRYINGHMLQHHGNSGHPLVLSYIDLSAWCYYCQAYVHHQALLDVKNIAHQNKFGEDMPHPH
Where a name gives a salt, the structure may show the parent alone.
outcome.measure: inhibition at 1 µM (%)
Record the value in %, omitting the unit from your answer.

These solved cases illustrate the format of a correct answer.
>>> measured_number("O=C(N[C@@H]1CCCC[C@H]1N1Cc2ccc(-c3noc(C(F)(F)F)n3)cc2C1=O)N1CC(F)C1 [Example 187]")
99
>>> measured_number("O=C(N[C@@H]1CCCC[C@H]1N1Cc2ccc(-c3noc(C(F)(F)F)n3)cc2C1=O)N1C2CCC1COC2 [Example 145]")
98
>>> measured_number("O=C(N[C@@H]1CCCC[C@H]1N1Cc2ccc(-c3noc(C(F)(F)F)n3)cc2C1=O)N1CCS(=O)(=O)CC1 [Example 168]")
96
>>> measured_number("Cc1ccc([C@@H]2CNCC[C@H]2N2Cc3ccc(-c4noc(C(F)(F)F)n4)cc3C2=O)cc1Cl (relative stereo) [Example 56]")
97
>>> measured_number("CCC1(C(=O)N[C@@H]2CCCC[C@H]2N2Cc3ccc(-c4noc(C(F)(F)F)n4)cc3C2=O)COC1 [Example 138]")
97

Let me know recorded inhibition at 1 µM for O=C1c2cc(-c3noc(C(F)(F)F)n3)ccc2CN1C1CCNC[C@@H]1c1ccccc1 (stereo partly shown) [Example 22, hydrochloride] , thanks.
100

Let me know recorded inhibition at 1 µM for O=C(N[C@@H]1CCCC[C@H]1N1Cc2ccc(-c3noc(C(F)(F)F)n3)cc2C1=O)N1C2COCC1C2 [Example 144] , thanks.
100
